The origin of these recorded values is patent US5346913A.

Tested on: TLB, CDM, WLR, SNW, WPM; also: test concentration or dose not given here
Details: in vivo
Below, each entry is listed alongside its reported percent disease control Average.
test_readout: percent disease control Average

CC1(C)C(=O)N(c2cc(Cl)cc(Cl)c2)C(=O)N1CC#CI ... 77.6%
CC1C(=O)N(c2ccc(F)cc2)C(=O)N1CC#CI (centres unmarked) ... 67.8%
O=C1N(c2cc(Cl)cc(Cl)c2)C(=O)C2(CCCC2)N1CC#CI ... 65.2%
O=C1N(c2cc(Cl)cc(Cl)c2)C(=O)C2(CCCCC2)N1CC#CI ... 69.4%
CC1C(=O)N(c2ccc(Cl)cc2)C(=O)N1CC#CI (centres unmarked) ... 72.4%
